target: T1, Anti-PSMA Fab (SEQ ID NOs: 19, 20); assay: phage binding ELISA; biotinylated PSMA Fab on neutravidin plate, clonal phage supernatant, anti-M13 HRP detection;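 also: wells were preincubated with blocking buffer either containing PSMA antigen or without it before crude phage supernatant was added, briefly incubated, then washed prior to detection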
T1 construct: In the panning ELISA the Fab was biotinylated and captured on neutravidin coated plates; also called 006 PSMA Fab
parameter.measured: Anti-PSMA Fab (SEQ ID NOs: 19, 20) signal
Form field (numeric): enter value without unit.

Note Anti-PSMA Fab (SEQ ID NOs: 19, 20) signal for the binder shown: VLMLCKPAWMCMGF (tested as crude clonal phage supernatant) [Phage-1880]
2.07

Note Anti-PSMA Fab (SEQ ID NOs: 19, 20) signal for the binder shown: IERWCIPDWMCHVW (tested as crude clonal phage supernatant) [Phage-1877]
2.08

Note Anti-PSMA Fab (SEQ ID NOs: 19, 20) signal for the binder shown: WSNWCTPEWMCVGF (tested as crude clonal phage supernatant) [Phage-1888]
2.05

Note Anti-PSMA Fab (SEQ ID NOs: 19, 20) signal for the binder shown: VTPWCTPSWMCFGF (tested as crude clonal phage supernatant) [Phage-1882]
2.06

Note Anti-PSMA Fab (SEQ ID NOs: 19, 20) signal for the binder shown: SLHWCIPAWMCDFV (tested as crude clonal phage supernatant) [Phage-1879]
2.07

Note Anti-PSMA Fab (SEQ ID NOs: 19, 20) signal for the binder shown: MVMRCQPEWMCTGI (tested as crude clonal phage supernatant) [Phage-1884]
2.06

Note Anti-PSMA Fab (SEQ ID NOs: 19, 20) signal for the binder shown: VEILCKPKWMCEFW (tested as crude clonal phage supernatant) [Phage-1878]
2.07

Note Anti-PSMA Fab (SEQ ID NOs: 19, 20) signal for the binder shown: DVMWCKPSWMCDWL (tested as crude clonal phage supernatant) [Phage-1889]
2.04

Note Anti-PSMA Fab (SEQ ID NOs: 19, 20) signal for the binder shown: LEKWCTPAWMCEML (tested as crude clonal phage supernatant) [Phage-1881]
2.06
